Recorded shrunken log2 fold change for the following sequences
System: Escherichia coli TOP10;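 further: peptides expressed intracellularly from a pBAD plasmid library in pooled LB shake-flask culture, induced with 0.3% L-arabinose, DNA abundance read by NGS, three biological replicates, DESeq2 with apeglm shrinkage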
test method notes: shrunken log2 fold change of peptide-encoding DNA abundance (4.5 h post-induction vs induction); higher = less antimicrobial activity (less host growth inhibition)
stated conditions: time post-induction: 4.5 h; library: site-saturation at positions 5, 18, 19, 20
property label: shrunken log2 fold change

1) RRIRGRPPRLPRPRPRPCQPPRP = -0.0639
2) RRIRTRPPRLPRPRPRPMDHPRP = -0.31
3) RRIRHRPPRLPRPRPRPSWFPRP = -0.408
4) RRIRWRPPRLPRPRPRPVFIPRP = -0.22
5) RRIRTRPPRLPRPRPRPQKPPRP = -0.0591
6) RRIRMRPPRLPRPRPRPFQVPRP = 0.0921
7) RRIRPRPPRLPRPRPRPWHPPRP = -0.227
8) RRIRQRPPRLPRPRPRPERPPRP = 0.223
9) RRIRNRPPRLPRPRPRPGLKPRP = 0.265
10) RRIRFRPPRLPRPRPRPPVTPRP = -0.132
11) RRIRMRPPRLPRPRPRPCHAPRP = -0.00133
12) RRIRRRPPRLPRPRPRPVLEPRP = 0.599
13) RRIRGRPPRLPRPRPRPLGLPRP = 0.841
14) RRIRRRPPRLPRPRPRPRLPPRP = 0.663
15) RRIRSRPPRLPRPRPRPEMGPRP = 0.128
